Literature-derived IC50 for Xanthine dehydrogenase/oxidase (Homo sapiens, UniProt P47989) follows.
Answer with a number only, understood to be in µM.

Example cases with answers are listed next.
Structure String	Unit Annotation	Endpoint Value
CC(C)COc1ccc(-c2cc(=O)[nH]c(N)n2)cc1N	µM	6.72
O=C(O)/C=C/c1ccccc1O	µM	196
CC(C)Oc1ccc(NC(=O)c2ccc(-c3nnn[nH]3)cc2)cc1	µM	0.055
COC(=O)CNC(=O)c1ccc(-n2ncc(C#N)c2N)cc1	µM	37.9
COc1cc(/C=C/C=O)ccc1O	µM	204
Nc1ncnc2c1cnn2-c1ccc(C(=O)O)cc1	µM	81

Next compound, please.
Using the record for COC(=O)CNC(=O)c1ccc(-n2ncc3c(N)ncnc32)cc1 , report its IC50.
0.08

====

pIC50: −log10 of the molar value.
Literature-derived pIC50 for Xanthine dehydrogenase/oxidase (Homo sapiens) follows.

Example cases with answers are listed next.
Structure String	pIC50
O=C(/C=C/c1ccc(O)cc1)OC[C@@H]1O[C@H](Oc2ccc(-c3cc(=O)c4c(O)cc(O)cc4o3)cc2)[C@@H](OC(=O)/C=C/c2ccc(O)cc2)[C@H](O)[C@H]1O	< 4.00
COC(=O)[C@H](Cc1ccccc1)NC(=O)/C=C/c1ccc(OC)c2oc(-c3ccc(OC)c(OC)c3)cc12	< 4.22
C=C1CC[C@]2(C(=O)O[C@@H]3O[C@H](CO[C@@H]4O[C@H](CO)[C@@H](O[C@@H]5O[C@@H](C)[C@H](O)[C@@H](O)[C@H]5O)[C@H](O)[C@H]4O)[C@@H](O)[C@H](O)[C@H]3O)CC[C@]3(C)C(=CC[C@@H]4[C@@]5(C)CC[C@H](O[C@@H]6O[C@H](CO)[C@@H](O)[C@H](O[C@@H]7OC[C@H](O)[C@H](O)[C@H]7O[C@@H]7O[C@@H](C)[C@H](O)[C@@H](O)[C@H]7O)[C@H]6O)C(C)(C)[C@@H]5CC[C@]43C)[C@@H]2C1	< 4.00
CCC[C@@H](O)C[C@H]1OC(=O)c2c(cc(OC)c(OC)c2O)[C@H]1O	< 3.21

Give pIC50 (Xanthine dehydrogenase/oxidase (Homo sapiens)) of the following molecule: COC(=O)[C@@H](Cc1c[nH]c2ccccc12)NC(=O)/C=C/c1ccc(OC)c2oc(-c3ccc(OC)c(OC)c3)cc12
< 4.22
